Measured Kd accompanies every entry in the list below.
Biological target: T1, 2b (Tomato aspermy virus (TAV), UniProt Q8UYT3 1-95)
T1 sequence: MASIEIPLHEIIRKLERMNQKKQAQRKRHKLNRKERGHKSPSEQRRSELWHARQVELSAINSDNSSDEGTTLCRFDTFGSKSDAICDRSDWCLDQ
Assay: EMSA
Conditions: protein: recombinant; tags: His-SUMO removed by SUMO protease; chain copies: 2; miRNA duplex with mismatches, 3' overhangs
measured-attribute: Kd (pM)

1) AtmiR168a (= NbmiR168d,e) (dsRNA, 5' phosphate on both strands) RNA 1: UCGCUUGGUGCAGGUCGGGAA RNA 2: CCCGCCUUGCAUCAACUGAAU | 1240
2) AtmiR162 (= NbmiR162b per Table 1) (dsRNA, 5' phosphate on both strands) RNA 1: UCGAUAAACCUCUGCAUCCAG RNA 2: GGAGGCAGCGGUUCAUCGAUC | 460
3) NbmiR403a (dsRNA, 5' phosphate on both strands) RNA 1: UUAGAUUCACGCACAAACUCG RNA 2: UGUUUGUGCGUGAAUCUGACA | 220
4) NbmiR403b (dsRNA, 5' phosphate on both strands) RNA 1: UUAGAUUCACGCACAAACUCG RNA 2: UGUUUGUGCGUGAUUCUGACA | 260

Source: paper PMC5915741
